# targetDesc: Beta-2 adrenergic receptor (Homo sapiens, UniProt P07550)
# Sequence (P07550 whole entry): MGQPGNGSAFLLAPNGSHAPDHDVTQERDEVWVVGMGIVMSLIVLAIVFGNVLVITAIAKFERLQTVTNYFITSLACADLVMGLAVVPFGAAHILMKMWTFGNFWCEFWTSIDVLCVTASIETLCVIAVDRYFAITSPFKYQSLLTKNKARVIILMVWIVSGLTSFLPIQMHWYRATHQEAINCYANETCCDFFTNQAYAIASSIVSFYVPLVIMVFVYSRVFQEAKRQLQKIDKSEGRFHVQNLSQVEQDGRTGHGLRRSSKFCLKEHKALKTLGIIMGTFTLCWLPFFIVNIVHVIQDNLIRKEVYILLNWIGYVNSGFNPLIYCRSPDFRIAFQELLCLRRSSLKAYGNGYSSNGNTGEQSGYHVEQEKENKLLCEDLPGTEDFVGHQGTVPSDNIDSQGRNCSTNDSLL
quantityName: IC50

-- ask Find IC50 for `Cc1cc(-c2ccccc2[C@@H](C)OC[C@H](O)CNC(C)(C)Cc2ccc(Cl)c(F)c2)ccc1C(=O)O` on Beta-2 adrenergic receptor (Homo sapiens, UniProt P07550) and write it down.
-- reply 1.7 µM

====

# protocolText: Tmax in rat at 1 mg/kg, po
# Type: ADME, organism-based
# Design: dose 1 mg/kg, route oral
# measurementSetup: in vivo
quantityName: Tmax (min)
# number only, unit min dropped from output

-- ask Specify Tmax for `Cc1cc(-c2ccccc2[C@@H](C)OC[C@H](O)CNC(C)(C)Cc2ccc(Cl)c(F)c2)ccc1C(=O)O` and stop.
-- reply 30

====

# protocolText: Half life in rat at 1 mg/kg, po
# Assay type: ADME, organism-based
# Set-up: dose 1 mg/kg, route oral
# measurementSetup: in vivo
quantityName: half-life (h)
# number only, unit h dropped from output

-- ask Specify half-life for `Cc1cc(-c2ccccc2[C@@H](C)OC[C@H](O)CNC(C)(C)Cc2ccc(Cl)c(F)c2)ccc1C(=O)O` and stop.
-- reply 1.8

====

# targetDesc: Cytochrome P450 2D6 (Homo sapiens)
# Sequence (P10635 whole entry): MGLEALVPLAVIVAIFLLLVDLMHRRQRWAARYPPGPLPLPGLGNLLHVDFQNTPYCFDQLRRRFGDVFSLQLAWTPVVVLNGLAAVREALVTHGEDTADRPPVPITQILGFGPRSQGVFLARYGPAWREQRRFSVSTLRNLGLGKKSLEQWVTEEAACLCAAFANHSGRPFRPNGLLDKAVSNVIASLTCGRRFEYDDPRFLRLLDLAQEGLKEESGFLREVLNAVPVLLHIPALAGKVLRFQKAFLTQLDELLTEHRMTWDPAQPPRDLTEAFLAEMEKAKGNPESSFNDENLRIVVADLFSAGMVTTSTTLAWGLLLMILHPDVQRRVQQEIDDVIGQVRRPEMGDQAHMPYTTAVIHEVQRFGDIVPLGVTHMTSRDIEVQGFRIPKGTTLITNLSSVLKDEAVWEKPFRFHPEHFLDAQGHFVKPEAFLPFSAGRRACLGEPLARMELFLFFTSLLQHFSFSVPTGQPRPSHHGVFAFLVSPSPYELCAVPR
Quick list: IC50 per entry.

Answered cases to consult:
-- ask Find IC50 for CC(C)(Cc1ccc2ccccc2c1)NC[C@@H](O)COC(c1cccc(C(=O)O)c1)C1CC1 (mixture of isomers) on Cytochrome P450 2D6 (Homo sapiens) and write it down.
-- reply > 10 µM

-- ask Find IC50 for `CC(C)(Cc1ccc2ccccc2c1)NC[C@@H](O)CO[C@@H](c1ccccc1CO)C1CC1` on Cytochrome P450 2D6 (Homo sapiens) and write it down.
-- reply 1.2 µM

---
-- ask Find IC50 for `C[C@@H](OC[C@H](O)CNC(C)(C)Cc1ccc2ccccc2c1)c1ccccc1-c1ccc(C(=O)O)cc1` on Cytochrome P450 2D6 (Homo sapiens) and write it down.
-- reply > 10 µM

====

# targetDesc: Extracellular calcium-sensing receptor (Homo sapiens, UniProt P41180)
# protocolText: Antagonist activity at human CaSR expressed in rat PC12h cells by reporter gene assay
Quick list: IC50 per entry.
# number only, unit nM dropped from output

Answered cases to consult:
-- ask Specify IC50 for `C[C@@H](OC[C@H](O)CNC(C)(C)Cc1ccc2ccccc2c1)c1ccccc1CC(=O)O` and stop.
-- reply 2200

-- ask Specify IC50 for `Cc1cc(-c2ccccc2[C@@H](C)OC[C@H](O)CNC(C)(C)Cc2ccc3ccccc3c2)ccc1C(=O)O` and stop.
-- reply 5

-- ask Specify IC50 for CC(OC[C@H](O)CNC(C)(C)Cc1ccc2ccccc2c1)c1ccccc1-c1ccc(C(=O)O)cc1 (mixture of isomers) and stop.
-- reply 11

Here is another compound to look at.
-- ask Specify IC50 for `Cc1cc(-c2ccccc2[C@@H](C)OC[C@H](O)CNC(C)(C)Cc2ccc(Cl)c(F)c2)ccc1C(=O)O` and stop.
-- reply 12

====

# targetDesc: Extracellular calcium-sensing receptor (Homo sapiens)
# Sequence (P41180 whole entry): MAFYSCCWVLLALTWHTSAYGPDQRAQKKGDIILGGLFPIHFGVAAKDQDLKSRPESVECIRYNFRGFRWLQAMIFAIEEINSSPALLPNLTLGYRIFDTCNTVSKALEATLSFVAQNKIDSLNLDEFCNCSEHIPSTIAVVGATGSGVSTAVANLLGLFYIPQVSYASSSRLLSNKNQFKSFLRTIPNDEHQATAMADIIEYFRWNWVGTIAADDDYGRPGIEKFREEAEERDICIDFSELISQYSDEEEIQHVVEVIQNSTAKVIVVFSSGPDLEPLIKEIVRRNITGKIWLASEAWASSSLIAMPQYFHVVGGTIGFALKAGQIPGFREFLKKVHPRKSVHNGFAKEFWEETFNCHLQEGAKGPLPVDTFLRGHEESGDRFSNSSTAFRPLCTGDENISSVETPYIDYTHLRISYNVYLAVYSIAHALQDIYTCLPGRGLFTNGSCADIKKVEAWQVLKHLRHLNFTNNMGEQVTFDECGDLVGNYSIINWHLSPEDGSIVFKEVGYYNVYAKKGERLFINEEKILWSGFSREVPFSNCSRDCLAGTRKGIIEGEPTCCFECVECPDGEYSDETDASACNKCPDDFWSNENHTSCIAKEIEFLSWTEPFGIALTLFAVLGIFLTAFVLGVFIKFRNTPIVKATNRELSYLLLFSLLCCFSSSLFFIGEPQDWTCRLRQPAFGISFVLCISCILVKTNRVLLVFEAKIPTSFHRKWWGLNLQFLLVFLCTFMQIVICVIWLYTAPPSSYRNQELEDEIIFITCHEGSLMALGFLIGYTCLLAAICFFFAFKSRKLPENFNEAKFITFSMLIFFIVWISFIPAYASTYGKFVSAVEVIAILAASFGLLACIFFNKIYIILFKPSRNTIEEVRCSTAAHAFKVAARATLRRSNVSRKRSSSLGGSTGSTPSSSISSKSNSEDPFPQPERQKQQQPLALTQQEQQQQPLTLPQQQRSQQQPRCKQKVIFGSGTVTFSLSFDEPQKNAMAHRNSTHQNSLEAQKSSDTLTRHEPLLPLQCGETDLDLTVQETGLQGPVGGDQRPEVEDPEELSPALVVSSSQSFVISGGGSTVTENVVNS
# protocolText: Antagonist activity at human CaSR expressed in rat PC12h cells by reporter gene assay
quantityName: pIC50
Field pIC50 (float): negative decimal logarithm of the concentration in molar.

-- ask Specify pIC50 for CC(OC[C@H](O)CNC(C)(C)Cc1ccc2ccccc2c1)c1ccc(-c2ccc(C(=O)O)cc2)cc1 (mixture of isomers) and stop.
-- reply 5.82

-- ask Specify pIC50 for `C[C@@H](OC[C@H](O)CNC(C)(C)Cc1ccc2ccccc2c1)c1ccccc1-c1ccc(C(=O)O)cc1` and stop.
-- reply 8.40

-- ask Specify pIC50 for `C[C@@H](OC[C@H](O)CNC(C)(C)Cc1ccc(Cl)c(F)c1)c1ccccc1-c1ccc(C(=O)O)cc1` and stop.
-- reply 7.64

-- ask Specify pIC50 for `C[C@@H](OC[C@H](O)CNC(C)(C)Cc1ccc2ccccc2c1)c1ccccc1CCC(=O)O` and stop.
-- reply 7.62

-- ask Specify pIC50 for `CC(C)(Cc1ccc2ccccc2c1)NC[C@@H](O)CO[C@@H](c1ccccc1CO)C1CC1` and stop.
-- reply 7.74

-- ask Specify pIC50 for CC(OC[C@H](O)CNC(C)(C)Cc1ccc2ccccc2c1)c1cccc(-c2ccc(C(=O)O)cc2)c1 (mixture of isomers) and stop.
-- reply 7.74

-- ask Specify pIC50 for CC(C)(Cc1ccc2ccccc2c1)NC[C@@H](O)COC(c1cccc(C(=O)O)c1)C1CC1 (mixture of isomers) and stop.
-- reply 6.02

Data provenance: ChEMBL document CHEMBL1671846
